The reported numbers originate from patent US20110288082A1.

# TGT: p97 (Homo sapiens)
# TEST SUMMARY: p97 ATPase assay (Kinase Glo Plus; biomol green for compounds that interfere with luciferase)
# Type: biochemical
# CONDITION SUMMARY: p97 ATPase assay
MEASUREMENT NAME: log10(IC50) (log10 of the value in µM)

{"STRUCTURE SMILES STRING": "COc1ccc(Nc2nc(Nc3ccc(OC)cc3)c3ccccc3n2)cc1", "log10(IC50)": 1.34}
{"STRUCTURE SMILES STRING": "COc1cccc2c(NCc3ccccc3)nc(NC(N)=O)nc12", "log10(IC50)": 1.69}
{"STRUCTURE SMILES STRING": "c1ccc(CNc2nc(N3CCN(c4ccccc4)CC3)nc3ccccc23)cc1", "log10(IC50)": 1.53}
{"STRUCTURE SMILES STRING": "CCCCc1cccc2c(NCc3ccccc3)nc(N3CCOc4ccccc43)nc12", "log10(IC50)": 0.42}
{"STRUCTURE SMILES STRING": "c1ccc(CNc2ccnc(N3CCOc4ccccc43)n2)cc1", "log10(IC50)": 0.46}
{"STRUCTURE SMILES STRING": "COc1cccc2c(NCc3ccccc3)nc(N3CCOCC3)nc12", "log10(IC50)": 1.49}
{"STRUCTURE SMILES STRING": "N#Cc1ccc2c(NCc3ccccc3)nc(NCc3ccccc3)nc2c1", "log10(IC50)": 1.40}
{"STRUCTURE SMILES STRING": "Fc1ccccc1-c1nc(NCc2ccccc2Cl)c2ccccc2n1", "log10(IC50)": 1.41}

* * *

# Test system: p97-dependent Ub^G76V-GFP degradation in HeLa cells
# TEST SUMMARY: Ub^G76V-GFP degradation (turn-over) assay
# Format: cell-based, human
# CONDITION SUMMARY: Homo sapiens, HeLa, read-out: IC50 (μM) Ub^G76V-GFP turn over, p97-dependent Ub^G76V-GFP degradation turn-over assay
Please use condition met for IC50 under 20 µM and condition not met for everything else, ties included.

{"MOLECULE": "N#Cc1ccc2c(NCc3ccccc3)nc(NCc3ccccc3)nc2c1", "CAT": "condition not met"}
{"MOLECULE": "c1ccc(CNc2nc(N3CCN(c4ccccc4)CC3)nc3ccccc23)cc1", "CAT": "condition not met"}
{"MOLECULE": "CCc1ccc(Nc2nc(N)nc(CCl)n2)cc1", "CAT": "condition met"}
{"MOLECULE": "CC(Nc1nc(N2CCOCC2)nc2ccccc12)c1ccccc1 (centres unmarked)", "CAT": "condition not met"}
{"MOLECULE": "Brc1ccc2c(NCc3ccccc3)nc(NCc3ccccc3)nc2c1", "CAT": "condition met"}

* * *

IC50 values for the molecules below.
# TGT: p97 (Homo sapiens, UniProt P55072)
# Sequence (P55072 2-806 limits assumed): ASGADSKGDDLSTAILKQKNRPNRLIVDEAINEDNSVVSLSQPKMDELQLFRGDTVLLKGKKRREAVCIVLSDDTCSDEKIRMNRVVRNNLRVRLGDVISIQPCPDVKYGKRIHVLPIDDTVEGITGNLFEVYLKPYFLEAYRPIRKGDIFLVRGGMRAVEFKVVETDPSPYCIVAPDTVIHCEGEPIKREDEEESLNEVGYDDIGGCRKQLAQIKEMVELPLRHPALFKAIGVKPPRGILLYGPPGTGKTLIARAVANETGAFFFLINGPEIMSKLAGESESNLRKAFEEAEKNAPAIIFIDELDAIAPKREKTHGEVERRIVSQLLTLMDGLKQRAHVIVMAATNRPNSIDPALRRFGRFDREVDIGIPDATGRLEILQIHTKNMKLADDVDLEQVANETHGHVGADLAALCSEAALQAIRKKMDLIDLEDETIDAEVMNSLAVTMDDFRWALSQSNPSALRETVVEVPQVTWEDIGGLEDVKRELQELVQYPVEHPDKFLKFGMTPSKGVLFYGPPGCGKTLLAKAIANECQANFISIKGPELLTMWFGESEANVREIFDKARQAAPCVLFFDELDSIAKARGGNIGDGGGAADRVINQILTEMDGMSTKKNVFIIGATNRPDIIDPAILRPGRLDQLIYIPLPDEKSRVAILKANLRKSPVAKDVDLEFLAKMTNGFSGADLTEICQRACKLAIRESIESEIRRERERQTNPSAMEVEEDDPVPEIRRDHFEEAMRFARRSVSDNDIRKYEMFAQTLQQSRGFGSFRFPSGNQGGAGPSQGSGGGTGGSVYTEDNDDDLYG
# TEST SUMMARY: p97 ATPase assay (Kinase Glo Plus; biomol green for compounds that interfere with luciferase)
# Assay type: biochemical
# CONDITION SUMMARY: purified p97, ATP, 60 min room temperature; mean +/- standard error
MEASUREMENT NAME: IC50 (µM)

{"STRUCTURE SMILES STRING": "Clc1ccc(Nc2nc(NCc3ccccc3)c3ccccc3n2)cc1", "MEASUREMENT NAME": "IC50", "OUTPUT UNIT": "µM", "OBSERVED VALUE": 5.4}
{"STRUCTURE SMILES STRING": "COc1ccc(-c2nc(NCc3ccc(C)cc3)c3ccccc3n2)cc1", "MEASUREMENT NAME": "IC50", "OUTPUT UNIT": "µM", "OBSERVED VALUE": 8}
{"STRUCTURE SMILES STRING": "Cc1cccc(CNc2nc(Nc3cccc(Cl)c3)nc3ccccc23)c1", "MEASUREMENT NAME": "IC50", "OUTPUT UNIT": "µM", "OBSERVED VALUE": 2.3}
{"STRUCTURE SMILES STRING": "Fc1ccc(CNc2nc(-c3ccccc3)nc3ccccc23)cc1", "MEASUREMENT NAME": "IC50", "OUTPUT UNIT": "µM", "OBSERVED VALUE": 11}
{"STRUCTURE SMILES STRING": "Clc1ccc(-c2nc(NCc3ccccc3)c3ccccc3n2)cc1Cl", "MEASUREMENT NAME": "IC50", "OUTPUT UNIT": "µM", "OBSERVED VALUE": 7.1}
{"STRUCTURE SMILES STRING": "Cc1c(Cl)cccc1Nc1nc(N)nc(CCl)n1", "MEASUREMENT NAME": "IC50", "OUTPUT UNIT": "µM", "OBSERVED VALUE": 18}
{"STRUCTURE SMILES STRING": "Clc1ccc2nc(NCc3ccccc3)nc(NCc3ccccc3)c2c1", "MEASUREMENT NAME": "IC50", "OUTPUT UNIT": "µM", "OBSERVED VALUE": 1.6}
{"STRUCTURE SMILES STRING": "COc1ccc(-c2nc(NCc3ccccc3)c3ccccc3n2)cc1", "MEASUREMENT NAME": "IC50", "OUTPUT UNIT": "µM", "OBSERVED VALUE": 1.6}
{"STRUCTURE SMILES STRING": "Fc1ccc(CNc2nc(NCc3ccccc3)c3ccccc3n2)cc1", "MEASUREMENT NAME": "IC50", "OUTPUT UNIT": "µM", "OBSERVED VALUE": 2.6}
{"STRUCTURE SMILES STRING": "COc1cccc2c(NCc3ccccc3)nc(-n3c(N)nc4ccccc43)nc12", "MEASUREMENT NAME": "IC50", "OUTPUT UNIT": "µM", "OBSERVED VALUE": 0.11}
{"STRUCTURE SMILES STRING": "c1ccc(CNc2nc(N3CCOc4ccccc43)nc3ccsc23)cc1", "MEASUREMENT NAME": "IC50", "OUTPUT UNIT": "µM", "OBSERVED VALUE": 0.4}
{"STRUCTURE SMILES STRING": "COCCOc1cccc2c(NCc3ccccc3)nc(N3CCOc4ccccc43)nc12", "MEASUREMENT NAME": "IC50", "OUTPUT UNIT": "µM", "OBSERVED VALUE": 0.6}
{"STRUCTURE SMILES STRING": "COc1ccc(-c2nc(NCc3ccc(Cl)cc3)c3ccccc3n2)cc1", "MEASUREMENT NAME": "IC50", "OUTPUT UNIT": "µM", "OBSERVED VALUE": 8}
{"STRUCTURE SMILES STRING": "Brc1cccc2c(NCc3ccccc3)nc(NCc3ccccc3)nc12", "MEASUREMENT NAME": "IC50", "OUTPUT UNIT": "µM", "OBSERVED VALUE": 3.3}
{"STRUCTURE SMILES STRING": "Oc1cccc2c(NCc3ccccc3)nc(N3CCOc4ccccc43)nc12", "MEASUREMENT NAME": "IC50", "OUTPUT UNIT": "µM", "OBSERVED VALUE": 1.2}
{"STRUCTURE SMILES STRING": "Clc1cccc(Nc2nc(NCc3ccccc3Cl)c3ccccc3n2)c1", "MEASUREMENT NAME": "IC50", "OUTPUT UNIT": "µM", "OBSERVED VALUE": 4.7}
{"STRUCTURE SMILES STRING": "COc1cccc2c(NCc3ccccc3)nc(Nc3nc4ccccc4n3C)nc12", "MEASUREMENT NAME": "IC50", "OUTPUT UNIT": "µM", "OBSERVED VALUE": 0.3}
{"STRUCTURE SMILES STRING": "COc1cccc2c(NCc3ccccc3)nc(-n3cnc4ccccc43)nc12", "MEASUREMENT NAME": "IC50", "OUTPUT UNIT": "µM", "OBSERVED VALUE": 3.3}
{"STRUCTURE SMILES STRING": "COc1cccc2c(NCc3ccccc3)nc(N3CCN(C)c4ccccc43)nc12", "MEASUREMENT NAME": "IC50", "OUTPUT UNIT": "µM", "OBSERVED VALUE": 3.1}
{"STRUCTURE SMILES STRING": "CN(Cc1ccccc1)c1nc(-c2ccc([N+](=O)[O-])cc2)nc2ccccc12", "MEASUREMENT NAME": "IC50", "OUTPUT UNIT": "µM", "OBSERVED VALUE": 8.4}
{"STRUCTURE SMILES STRING": "FC(F)(F)c1cc(CNc2nc(NCc3ccccc3)c3ccccc3n2)ccc1Cl", "MEASUREMENT NAME": "IC50", "OUTPUT UNIT": "µM", "OBSERVED VALUE": 4.7}
{"STRUCTURE SMILES STRING": "COc1c(F)cccc1Nc1nc(NCc2ccccc2)c2ccccc2n1", "MEASUREMENT NAME": "IC50", "OUTPUT UNIT": "µM", "OBSERVED VALUE": 1.7}
{"STRUCTURE SMILES STRING": "Clc1cccc(Nc2nc(NCc3ccc(Br)cc3)c3ccccc3n2)c1", "MEASUREMENT NAME": "IC50", "OUTPUT UNIT": "µM", "OBSERVED VALUE": 7.4}
